- System: leukotriene pathway in human whole blood
- Experimental Details: Human whole blood assay (LTB4 levels after A23187 stimulation)
- Format: cell-based
- Test Settings: human whole blood diluted 1:1 in RPMI, A23187 stimulation; Table 6 (additional runs)
Here the recorded IC50 is given for each entry.
Numeric answer only, unit nM assumed.

>>> assay_result("CC(C)(C)c1ccc(-c2cnc(N)nc2)c(F)c1Oc1ncccn1")
78
>>> assay_result("Nc1cnc(-c2ccc(C3CCCC3)c(Oc3ncccn3)c2F)cn1")
162
>>> assay_result("Nc1cnc(-c2ccc(C3CCCC3)c(Oc3nccc(N)n3)c2F)cn1")
23.8
>>> assay_result("CC(C)(C)c1ccc(-c2cnc(N)nc2)c(F)c1Oc1cc(N)ncn1")
160
>>> assay_result("Nc1cnc(-c2ccc(C3CCC3)c(OCc3ccc(-c4ccc(C(F)(F)F)cc4)cc3)c2F)cn1")
26.3

Asked: Report measured IC50; entry is Nc1cnc(-c2ccc(C3CCC3)c(Oc3ccnc(N)n3)c2F)cn1
Given back: 21.4

Asked: // Input: CC(C)(C)c1ccc(-c2cnc3[nH]ccc3c2)c(F)c1Oc1ncccn1 . Output its IC50 only.
Given back: 124

Asked: Consider the compound Nc1cnnc(Oc2c(C3CCC3)ccc(-c3cnc(N)cn3)c2F)c1 and give its recorded IC50.
Given back: 449

Asked: Fill in IC50 for record Nc1cnc(-c2ccc(C3CCCCC3)c(O)c2F)cn1
Given back: 15.1

Asked: Return IC50 for the following compound: N#CCOc1c(C2CCC2)ccc(-c2cnc(N)cn2)c1F
Given back: 1860

---

- Measured On: human FLAP (Homo sapiens (Human))
- Sequence (P20292 whole entry): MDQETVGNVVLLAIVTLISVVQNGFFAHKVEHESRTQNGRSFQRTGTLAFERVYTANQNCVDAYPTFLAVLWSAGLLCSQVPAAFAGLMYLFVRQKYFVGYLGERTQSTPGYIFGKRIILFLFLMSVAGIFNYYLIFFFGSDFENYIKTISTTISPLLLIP
- Experimental Details: FLAP binding assay (HTRF format)
- Test Settings: human FLAP wild type membranes, HTRF format; Table 6 (additional runs)
pKi: −log10 of the molar value.
Class Met: pKi at least 7. Class Not met: pKi below 7.

>>> class_name("Nc1cnnc(Oc2c(C3CCC3)ccc(-c3cnc(N)cn3)c2F)c1")
"Met"

Now, please, on to the next molecule.
Asked: Determine whether measured pKi meets or exceeds 7 for N#Cc1cccc(COc2c(C3CCC3)ccc(-c3cnc(N)cn3)c2F)c1
Given back: Met

---

Items are presented alongside their recorded pIC50.
- Test system: leukotriene pathway in human whole blood
- Experimental Details: Human whole blood assay (LTB4 levels after A23187 stimulation)
- Type: cell-based
- Test Settings: human whole blood diluted 1:1 in RPMI, A23187 stimulation; Table 6 (additional runs)
Structures can show the parent of a compound that is named as a salt.
Hey, just a heads up that pIC50 is the negative log base 10 of the concentration in molar.

Completed entries (count: 8):
>>> assay_result("Nc1cnc(-c2ccc(C3CCC3)c(OCc3nc4ccccc4s3)c2F)cn1 [Example 283, trifluoroacetic acid salt]")
6.27
>>> assay_result("Nc1cnc(-c2ccc(C3CCC3)c(Oc3ccnc(N)c3)c2F)cn1")
6.40
>>> assay_result("CC(C)(C)c1ccc(-c2cnc(N)cn2)c(F)c1O [Intermediate G]")
6.24
>>> assay_result("Nc1cnc(-c2ccc(C3CCC3)c(OCCN3C(=O)c4ccccc4C3=O)c2F)cn1")
7.00
>>> assay_result("NC(=O)c1ccc(Oc2c(C3CCC3)ccc(-c3cnc(N)cn3)c2F)cc1")
6.89
>>> assay_result("Nc1cnc(-c2ccc(C3CCC3)c(OCCNc3ccncn3)c2F)cn1")
6.67
>>> assay_result("Nc1cnc(-c2ccc(C3CCC3)c(Oc3cncc(N)n3)c2F)cn1")
6.83
>>> assay_result("Nc1cnc(-c2ccc(C3CCC3)c(Oc3cc(N)ncn3)c2F)cn1")
7.25

Continue with the next molecule.
Asked: Output measured pIC50 for this item: COc1cc(Oc2c(C3CCC3)ccc(-c3cnc(N)cn3)c2F)ncn1
Given back: 6.90

Value source: patent US9732093B2
